Assay: qHTS assay to identify small molecule agonists of the estrogen receptor beta (ER-beta) signaling pathway - cell viability counter screen (AID 1259380); further: nearly all actives have a fitted effect of over 30% in size
Details: ER-beta-bla HEK293T viability, CellTiter-Glo luminescence, 16 h; series mostly up to 92.4 µM
Inconclusive results are not listed. Calls of active or inactive are those of the source. The call rests on the fitted dose curve; in most records, active means well fitted cell-killing curve with a large enough effect in the repeat runs; inconclusive means weak or mixed curves, or effect the other way; inactive means flat fitted curve, though single readings scatter.
Classes used: t = active, f = inactive

| compound | assignedClass |
| --- | --- |
| CCO[Si](CCCSSSSCCC[Si](OCC)(OCC)OCC)(OCC)OCC | t |
| C=CC(C)(CCC=C(C)C)OC(=O)/C=C/c1ccccc1 (stereo not given) | f |
| CC1=CP(=O)(c2ccccc2)CC1 (stereo not given) | f |
| CCCCCCCC/C=C/CCCOC(C)=O | f |
| c1ccc(Sc2ccccc2)cc1 | f |

* * *

Assay: qHTS assay for small molecule disruptors of the mitochondrial membrane potential - cell viability (AID 720634); further: nearly all actives have a fitted effect of over 20% in size
Conditions: HepG2 viability, ATP luminescence (CellTiter-Glo), 1 h; series mostly up to 83.2 µM
Records with an inconclusive call do not appear. Active and inactive are the calls of the source. Calls come from the whole dose curve.
Classes used: active, inactive

| compound | assignedClass |
| --- | --- |
| O=C1OC(=O)c2cccc3cccc1c23 | inactive |
| COc1ccccc1OCCNCC(O)COc1cccc2[nH]c3ccccc3c12 (stereo not drawn) | inactive |
| CC1CCCNC1 (stereo not drawn) | inactive |
| CC(O)C#CC(C)O (stereo not drawn) | inactive |
| CNC(=S)NN | inactive |
| COc1ccc2sc(C(=O)Nc3nnn[nH]3)c(OC(C)C)c2c1 | inactive |
| CCNc1nc(NC(C)CC)nc(OC)n1 (stereo not drawn) | inactive |
| CCN(CC)CCOC(=O)C1(C2CCCCC2)CCCCC1 | inactive |
| CCCN(CCc1cccs1)[C@H]1CCc2c(O)cccc2C1 | inactive |
| COc1cccc(CCc2ccccc2OCC(CN(C)C)OC(=O)CCC(=O)O)c1 (stereo not drawn) | inactive |
| CCC(C)c1cc([N+](=O)[O-])cc([N+](=O)[O-])c1OC(=O)OC(C)C (stereo not drawn) | active |
| Cc1c(-c2ccc(O)cc2)n(Cc2ccc(OCCN3CCCCCC3)cc2)c2ccc(O)cc12 | inactive |
| CC(C)c1cccc(C(C)C)c1N1C(=O)c2ccc(O)cc2C1=O | active |
| CC(C)(C)CC(C)(C)c1ccccc1O | active |
| Oc1c(Br)cc(Br)c2cccnc12 | inactive |
| C=CC(=O)OCCOCC(CC)(COCCOC(=O)C=C)COCCOC(=O)C=C | inactive |
| O=C(O)CCCCCCC(=O)O | inactive |
| CCN(CC)CCSC(=O)C(c1ccccc1)c1ccccc1 | inactive |
| c1ccc(Sc2ccccc2)cc1 | inactive |
| CC(C)c1ccc(O)c(C(C)C)c1 | inactive |
| CN1[C@@H]2CC[C@@H]1CC(OC(=O)C(CO)c1ccccc1)C2 (stereo partly drawn) | inactive |
| CCCCCCCCCCCCCCNCCO | inactive |
| C=CCCCCCCC=C | inactive |
| C=CC(=O)OCCC#N | inactive |
| CC1=C(/C=C/C(C)=C/C=C/C(C)=C/C(=O)Nc2ccc(O)cc2)C(C)(C)CCC1 | inactive |
| C=CC(=O)OCC(O)COc1ccccc1 (stereo not drawn) | inactive |
| COc1cc(C(C)C)c2c(c1)S(=O)(=O)N(COc1cc(=O)n3cccc(OCCN4CCCCC4)c3n1)C2=O | inactive |
| CN1[C@@H]2CC[C@H]1CC(OC(=O)C(CO)c1ccccc1)C2 (stereo partly drawn) | inactive |
| [O]=[Zr] | inactive |
| Cc1cccc(C)c1NC(=O)CN1CCN(CCCC(c2ccc(F)cc2)c2ccc(F)cc2)CC1 | inactive |
| CCC(C)(C)c1cc(O)c(C(C)(C)CC)cc1O | inactive |
| C=C(c1ccc(C(=O)O)cc1)c1cc2c(cc1C)C(C)(C)CCC2(C)C | inactive |
| CCc1ccc(O)c(C(C)(C)C)c1 | inactive |
| CCCCCCCCCCCCCCCC | inactive |
| Nc1ncnc2c1ncn2[C@@H]1O[C@H](COP(=O)(O)O)[C@@H](O)[C@H]1O | inactive |
| COC(=O)NCCC[Si](OC)(OC)OC | inactive |
| O=C(O)Cc1ccc(OCCNC[C@H](O)c2ccccc2)cc1 | inactive |
| CC(C)=C1CC[C@@H](C)CC1=O | inactive |

* * *

Target: Cytochrome P450 2C9 (Homo sapiens) (UniProt P11712)
Sequence (P11712 whole entry, looked up): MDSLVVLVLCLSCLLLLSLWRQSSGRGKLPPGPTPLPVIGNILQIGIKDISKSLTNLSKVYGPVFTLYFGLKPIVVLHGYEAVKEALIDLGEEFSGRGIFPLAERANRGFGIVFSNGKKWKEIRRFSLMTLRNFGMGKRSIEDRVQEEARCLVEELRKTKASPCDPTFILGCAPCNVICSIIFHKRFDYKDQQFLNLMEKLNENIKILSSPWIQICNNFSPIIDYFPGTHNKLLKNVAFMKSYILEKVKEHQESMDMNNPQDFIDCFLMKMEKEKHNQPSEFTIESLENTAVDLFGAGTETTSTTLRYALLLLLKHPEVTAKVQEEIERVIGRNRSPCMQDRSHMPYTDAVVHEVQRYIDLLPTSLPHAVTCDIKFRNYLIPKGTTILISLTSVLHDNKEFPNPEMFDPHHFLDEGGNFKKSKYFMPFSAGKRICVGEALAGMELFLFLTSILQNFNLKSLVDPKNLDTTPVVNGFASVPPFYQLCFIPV
Assay: Cytochrome P450 Family 2 Subfamily C Member 9 (CYP2C9) small molecule antagonists: luciferase reporter qHTS assay (AID 1671198); further: nearly all actives have a fitted effect of over 50% in size
Details: P450-Glo CYP2C9 enzyme assay, luciferin luminescence; series mostly up to 115 µM
Records with an inconclusive call do not appear. The source made the active and inactive calls. Calls follow the shape of the dose curve; as a rule, active = well fitted inhibition curve with a large enough effect in the repeat runs; inconclusive = weak or mixed curves; inactive = no such curve, though single readings can be large or run the other way.
Classes used: Yes for active, No for inactive

| compound | assignedClass |
| --- | --- |
| Oc1ccc(-c2ccc(O)cc2)cc1 | No |
| O=C[C@H](O)[C@H](O)[C@H](O)CO | No |
| O=C(O)CC(=O)O | No |
| CC(CN(C)C)CN1c2ccccc2CCc2ccccc21 (centres undefined) | No |
| CCCCCCCCCCCCCc1ccccc1 | No |
| CCCCCCCCCCCCCCNCCO | No |
| CCCCCCCCCCc1ccccc1 | No |
| COc1cccc(OC)c1O | Yes |
| Oc1ccc(-c2ccccc2)c(Cl)c1 | Yes |
| Cc1ccc(CCn2c3c(c4cc(Cl)ccc42)CN(C)CC3)cn1 | No |
| C(=C/c1ccccc1)/c1ccccc1 | No |
| Clc1nc2ccccc2s1 | No |
| CC(=O)OC1CCCCC1 | No |
| CCCCCCCCCC(=O)N(C)C | Yes |
| CN(C)c1ccc(N=Nc2ccccc2C(=O)O)cc1 | Yes |
| C[n+]1c2cc(N)ccc2cc2ccc(N)cc21 (tested in a mixture with another compound) | No |
| CC(C)=CCCC(C)O (centres undefined) | No |
| CCCCCCCC/C=C\CCCCCCCC(=O)OCCOC(=O)CCCCCCC/C=C\CCCCCCCC | Yes |
| c1ccc2c(c1)CCC2 | No |
| OCCCCl | No |
| CC(C)(C)c1n[nH]c(=O)n(N)c1=O | No |
| CCCCCCOc1ccc(O)cc1 | Yes |
| CCCCCCS | No |
| Cc1c(C)n(Cc2ccccc2)c2ccc(C(=O)OCCN(C)C)cc12 | Yes |
| CN(C)c1ccc(N=NS(=O)(=O)O)cc1 | Yes |
| CCCCCCCC(OC)OC | No |
| Cn1cnc2ncnc(N)c21 | No |
| CCN(CC)CCCN(c1ccccc1)C1Cc2ccccc2C1 | No |
| COC(=O)CC(C)CCC=C(C)C (centres undefined) | No |

* * *

Assay: Caspase-3/7 induction in HepG2 cells by small molecules, qHTS cell viability counter screen (AID 1346981); further: nearly all actives have a fitted effect of over 30% in size
Conditions: CellTiter-Fluor fluorescence, 17 h; series mostly up to 92.4 µM
Records with an inconclusive call do not appear. Activity calls are given as the source filed them. The call rests on the fitted dose curve; in most records, active means well fitted cell-killing curve with a large enough effect in the repeat runs; inconclusive means weak or mixed curves, or effect the other way; inactive means flat fitted curve, though single readings scatter.
Classes used: True for active, False for inactive

| compound | assignedClass |
| --- | --- |
| O=C(c1ccccc1)c1cc(Cl)ccc1O | False |
| CC(C)N=C(N)/N=C(\N)Nc1ccc(Cl)cc1 | False |
| O=CC1CC1 | False |
| CCNc1nc(NC(C)CC)nc(OC)n1 (centres undefined) | False |
| Oc1ccc(-c2ccccc2)c(Cl)c1 | False |
| CC1(C)C(=O)N(Br)C(=O)N1Br | False |
| [O]=[Zr] | False |
| CC(C)(c1cc(Br)c(O)c(Br)c1)c1cc(Br)c(O)c(Br)c1 | False |
| COCC(=O)O[C@]1(CCN(C)CCCc2nc3ccccc3[nH]2)CCc2cc(F)ccc2[C@@H]1C(C)C | True |

* * *

Test: A CellTox Green Cytotoxicity Assay to monitor cytotoxicity in HEK293 cells - 24 hour (AID 1224875); further: nearly all actives have a fitted effect of over 45% in size
Settings: CellTox Green fluorescence; series mostly up to 76.8 µM
Records with an inconclusive call do not appear. Active and inactive are the calls of the source. The call rests on the fitted dose curve; in most records, active means well fitted activation curve with a large enough effect in the repeat runs; inconclusive means weak or mixed curves; inactive means flat fitted curve, though single readings scatter.
Classes used: 1 (active), -1 (inactive)

| compound | assignedClass |
| --- | --- |
| C/C=C/C(=O)C1=C(C)CCCC1(C)C | -1 |
| CCCCCCCCCCOCC(O)CN (configuration not stated) | 1 |
| CC(COC(=O)c1ccccc1)OC(=O)c1ccccc1 (configuration not stated) | -1 |
| COc1cccc(O)c1 | -1 |
| Cc1c(C(=O)O)cccc1[N+](=O)[O-] | -1 |
| C=CCCCCCCC=C | -1 |
| CCOC(=O)CC(C)O (configuration not stated) | -1 |
| CCCCOC(=O)C(C)CC (configuration not stated) | -1 |
| CCCCN(CCCC)CCC(O)c1cc2c(Cl)cc(Cl)cc2c2cc(C(F)(F)F)ccc12 (configuration not stated) | -1 |
| CC(NCCC(c1ccccc1)c1ccccc1)c1ccccc1 (configuration not stated) | 1 |
| CCOC(=O)COc1ccc(C)cc1 | -1 |
| CN(C)c1ccc(N=NS(=O)(=O)O)cc1 | -1 |
| CCOC(OCC)C(=O)c1ccccc1 | -1 |
| CCOC(=O)CN | -1 |
| COc1cc(C=C2CCC/C(=C\c3ccc(O)c(OC)c3)C2=O)ccc1O | -1 |
| CC1(C)C(=O)N(Br)C(=O)N1Br | -1 |
| CC(=O)C=O | -1 |
| CC(C)=CC1CC(C)CCO1 (configuration not stated) | -1 |
| C=CC/C=C/C/C=C/C/C=C/C | -1 |
| OCCCc1cccnc1 | -1 |
| CCCC(C)CCC(C)=O (configuration not stated) | -1 |
| C1CC(COCC2CO2)CCC1COCC1CO1 (configuration not stated) | -1 |
| Cc1c(-c2ccc(O)cc2)n(Cc2ccc(OCCN3CCCCCC3)cc2)c2ccc(O)cc12 | 1 |
| O=C1OC(OC(=O)c2cccnc2Nc2cccc(C(F)(F)F)c2)c2ccccc21 (configuration not stated) | -1 |
| CC(C)c1ccc(O)c(C(C)C)c1 | 1 |
| CCc1c(C(=O)O)c(=O)cnn1-c1ccc(Cl)cc1 | -1 |
| Cc1cnccn1 | -1 |
| CC(=O)Oc1ccc(C2(c3ccc(OC(C)=O)cc3)C(=O)Nc3ccccc32)cc1 | -1 |
| CCCCN(C)C | -1 |
| Cc1ccc(CCn2c3c(c4cc(Cl)ccc42)CN(C)CC3)cn1 | -1 |
| O=C(O)CC(=O)O | -1 |
| [O]=[Zr] | -1 |
| O=C1OC(=O)c2ccc3c4c(ccc1c24)C(=O)OC3=O | -1 |
| CCOC(=O)C1=C(C)NC(C)=C(C(=O)OCC)C1c1ccccc1/C=C/C(=O)OC(C)(C)C | -1 |
| Cc1cn[nH]c1 | -1 |
| Cc1cc(=O)[nH]c(=O)[nH]1 | -1 |
| CN1CCN(C2Cc3ccccc3Sc3ccc(Cl)cc32)CC1 (configuration not stated) | 1 |
